- System: A498
- assay.remarks: NCI tumour cell line growth inhibition, 48 h
The source made the active and inactive calls. Rule as the data show it: active = GI50 up to about 1.1 µM and inactive = higher.
Field 'call' accepts true (1) for active, false (0) for inactive

molecule: COc1ccc(/C=C/C(=O)c2sc(N)nc2C)cc1
system.under.test: A498
group: false (0)
--
molecule: COc1ccc(CC2COc3cc(O)cc(O)c3C2=O)cc1O (configuration not stated)
system.under.test: A498
group: false (0)
--
molecule: COC(=O)c1cc2c3c(ccc2[nH]1)N(C(=O)c1cc2c4c(ccc2[nH]1)N(C(=O)c1cc2c5c(ccc2[nH]1)N(C(N)=O)CC5)CC4)CC3
system.under.test: A498
group: false (0)
--
molecule: O=C(NC1CCCCC1)NC12CC3CC(CC(F)(C3)C1)C2
system.under.test: A498
group: false (0)

query: Identify the outcome logged in this assay for the molecule shown: CC1OC1C(=O)P(=O)(O)O (configuration not stated)
result: false (0)

query: Follow-up entry: Clc1cccc(/C=c2\nc(-c3ccccc3)n3c2nc2ccccc23)c1
result: false (0)

query: Same question, N#Cc1c(N2CCN(c3ccc([N+](=O)[O-])cc3)CC2)[n+]([O-])c2ccc(-c3ccc([N+](=O)[O-])cc3)cc2[n+]1[O-] this time
result: false (0)

query: Quick one: COC(=O)C1=C(C(=O)OC)SC(=C2S[C@@H]3[C@@H]4C[C@H]([C@@H]3S2)[C@H]2C(=O)OC(=O)[C@@H]42)S1
result: false (0)

query: One more molecule: CC(C)(C)c1ccc(OCC(=O)O)c(Cl)c1
result: false (0)

* * *

- System: K562
- assay.remarks: NCI tumour cell line growth inhibition, 48 h
Active and inactive are the calls of the source. Rule as the data show it: active = GI50 up to about 1.1 µM and inactive = higher.
Your reply should match one of these outcome classes. t for active, f for inactive

The following molecules have reported results that may help.
molecule: Nn1c(S)nnc1COc1cccc(OCc2nnc(S)n2N)c1
group: f

molecule: Cc1ccc2[nH]c3c4c5ccccc5nc-4c[nH]c3c2c1
group: f

molecule: CCCCCCCCCCCCNC(=S)OC
group: f

query: Recorded test call requested for CCCCCCCCCCCCn1[nH]c(C)c(C(=S)SCCCCCCCC)c1=O
result: f

query: For FC(F)(F)c1ccc(/N=N/N2CCCC2)cc1 then?
result: f

query: Cool, now Cc1ccc(NC(=O)CCC(CC(=O)C(C)(C)C)=NNC(=O)C(=O)NN)cc1C
result: f

* * *

- Test system: SW-620
- assay.remarks: NCI tumour cell line growth inhibition, 48 h
Active and inactive are the calls of the source. Rule as the data show it: active = GI50 up to about 1.1 µM and inactive = higher.
observation.type: GI50

Some molecules with known GI50 results, for comparison:
molecule: CNC(=O)NCNC(=O)NC
system.under.test: SW-620
GI50: > 100 µM (inactive)
--
molecule: COc1ccc(-n2c(C)nc3ccc(NC4OC(COC(C)=O)C(OC(C)=O)C(OC(C)=O)C4OC(C)=O)cc3c2=O)cc1 (stereo not drawn)
system.under.test: SW-620
GI50: 39.1 µM (inactive)
--
molecule: COc1cc(C2(C)SCCCS2)cc(OC)c1OC
system.under.test: SW-620
GI50: > 100 µM (inactive)
--
molecule: CC(C)(C)c1ccc(OCC(=O)O)c(Cl)c1
system.under.test: SW-620
GI50: > 100 µM (inactive)

Hey, quick one: what's GI50 for each of these?
1. CN1C2CCC1C(C(O)c1ccccc1[N+](=O)[O-])C(=O)C2 (stereo not drawn)
2. COc1nc(C(Cl)(Cl)Cl)c(Cl)c(OC)c1Cl
3. CC(C)(C)c1cc(/C=C2/NC(=O)NC2=O)cc(C(C)(C)C)c1O
4. COc1nc2c(N3CCCC3)nc(N3CCNCC3)nc2nc1NCc1ccccc1
5. COc1ccc(/C=C2\NC(=S)N(/C=C3\C(=O)Oc4ccccc4C3=O)C2=O)cc1OC
6. CCCCCCCCCc1c(O)c(O)c(CCCCCCCCC)c(CCCCCCCCC)c1CCCCCCCCC
7. CCCCCCCCCCCCNC(=S)OC

result:
["45.2 µM (inactive)", "39.4 µM (inactive)", "18.3 µM (inactive)", "2.77 µM (inactive)", "> 100 µM (inactive)", "> 100 µM (inactive)", "16.6 µM (inactive)"]

Please supply GI50 for each of the following items, keeping them in order.
1. Cc1ccc(OCC2OC(n3cnc4c(Br)nc(Br)nc43)CC2Oc2ccc(C)cc2)cc1 (stereo not drawn)
2. N#Cc1c(-c2ccc(Cl)cc2)c(C#N)c(=O)n(NS(=O)(=O)c2ccccc2)c1O

result:
2.56 µM (inactive)
30.6 µM (inactive)
